- System: SW-620
- assayOverview: NCI tumour cell line growth inhibition, 48 h
Calls of active or inactive are those of the source. No stated cut-off is given here; in the data, active = GI50 up to about 1.1 µM and inactive = higher.
Listed below: GI50 values for each entry.

For reference, reported GI50 for COC1OC(CO)C(O)C1N (stereo not given) stands at > 100 µM (inactive)

For reference, reported GI50 for CCOC(=O)/C1=C(\C)N(c2ccc(C)cc2)C(=O)c2ccccc2C(=O)c2c(O)ccc(O)c21 stands at 27.6 µM (inactive)

For reference, reported GI50 for COc1ccc(CNC2=C(NC(C)=O)C(=O)c3ccccc3C2=O)cc1 stands at 8.13 µM (inactive)

For reference, reported GI50 for CCOc1ccc(C(c2c(O)c3ccccc3oc2=O)c2c(O)c3ccccc3oc2=O)cc1 stands at 79.4 µM (inactive)

For reference, reported GI50 for C/C(=N/O)c1cccc(Nc2nc3ccccc3c3[nH]c4ccccc4c23)c1 stands at 1.63 µM (inactive)

###

- System: SW-620
- assayOverview: NCI tumour cell line growth inhibition, 48 h
Calls of active or inactive are those of the source. Cut-off read from the data, not from the text of the source: active = GI50 up to about 1.1 µM and inactive = higher.
Reply using exactly one outcome from active, inactive

Worked set:
CC(=O)Nc1ccc(C(=O)N2N=C(C)/C(=C/c3cccc(O)c3)C2=O)cc1 = inactive
Cc1ccc(-c2cc(=O)c(=O)[nH][nH]2)cc1 = inactive
O=S(=O)(c1ccccc1)n1c2ccc(Br)cc2c2nc3ccccc3nc21 = inactive
CC[C@@H]1ON(C)[C@H]2CN(C)C(=O)[C@@H]12 = inactive
CC(=O)OCC1OC(SC2OC(COC(C)=O)C(OC(C)=O)C(OC(C)=O)C2OC(C)=O)C(OC(C)=O)C(OC(C)=O)C1OC(C)=O (centres undefined) = inactive
CN1C(=O)C2(C)SC1(c1ccccc1)C1C(=O)N(c3ccccc3)C(=O)C12 (centres undefined) = inactive

**Q:** Dear colleague, could you share the recorded outcome for NNC(=O)c1ccccc1Nc1nc(-c2cccs2)nc2ccc(Br)cc12 when you have a moment?
**A:** inactive

**Q:** Dear colleague, could you share the recorded outcome for O=c1c2ccccc2n2n1CC(O)C2 (centres undefined) when you have a moment?
**A:** inactive

**Q:** Dear colleague, could you share the recorded outcome for Cc1cc(N(CCC#N)CCC#N)ccc1/C=C1N=C(/C=C\c2ccccc2)N(c2ccc(C(=O)O)cc2)C\1=O when you have a moment?
**A:** inactive

**Q:** Dear colleague, could you share the recorded outcome for CC(C)CCCC(C)[C@H]1CC[C@H]2[C@@H]3CC[C@H]4C[C@@H](CCC=C(c5cc(Cl)c(O)c(C(=O)O)c5)c5cc(Cl)c(O)c(C(=O)O)c5)CC[C@]4(C)[C@H]3CC[C@]12C (some centres undefined) when you have a moment?
**A:** inactive

###

- System: UACC-62
- assayOverview: NCI tumour cell line growth inhibition, 48 h
Active and inactive are the calls of the source. No stated cut-off is given here; in the data, active = GI50 up to about 1.1 µM and inactive = higher.
Listed below: GI50 values for each entry.

For reference, reported GI50 for N=C(N)SCCN1CCCCC1 stands at 23.4 µM (inactive)

For reference, reported GI50 for C#CC1(O)C(COP(=O)(O)OC(COCCCCCCCCCCCCCCCCCC)COP(=O)(O)OCC2OC(n3cc(C)c(=O)[nH]c3=O)CC2N=[N+]=[N-])OC(n2ccc(N)nc2=O)C1O (configuration not stated) stands at 1.88 µM (inactive)

###

- Test system: SF-268
- assayOverview: NCI tumour cell line growth inhibition, 48 h
Active and inactive are the calls of the source. Cut-off read from the data, not from the text of the source: active = GI50 up to about 1.1 µM and inactive = higher.
measuredAttribute: GI50

CC(=O)OC(C)(C)[C@H]1O[C@]23O[C@]1(C)C[C@@H](C)[C@@H]2[C@@]1(C)CC[C@@]24C[C@@]25CC[C@H](O[C@@H]2OC[C@@H](O)[C@H](O)[C@H]2O)C(C)(C)[C@@H]5CC[C@H]4[C@]1(C)[C@H]3O = 14 µM (inactive)
Nc1c(-c2ccccc2[N+](=O)[O-])nc2ccccn12 = > 100 µM (inactive)
Cc1nc(Nc2ccc(Cl)c(Cl)c2)sc1C(=O)/C=C/c1ccc2c(c1)OCO2 = 24.3 µM (inactive)
COC1OC(CO)C(O)C1N (stereo not given) = > 100 µM (inactive)

For reference, reported GI50 for COC(=O)C1=C(C)NC(=S)NC1c1ccc(N(CCCl)CCCl)cc1Cl (stereo not given) stands at 23.9 µM (inactive)

For reference, reported GI50 for COc1c(OC/C=C(\C)CCC=C(C)C)ccc2ccc(=O)oc12 [COLLININ] stands at 96.8 µM (inactive)

For reference, reported GI50 for CCOP(=O)(OCC)C(c1ccccc1)N(C(=O)NC(F)(F)F)c1cccc(F)c1 (stereo not given) stands at > 100 µM (inactive)

For reference, reported GI50 for Oc1ccc(-c2nc3cc(F)ccc3s2)cc1 stands at 26.7 µM (inactive)

For reference, reported GI50 for Fc1ccccc1C1SCC2=Nc3ccccc3CN21 (stereo not given) stands at 54.1 µM (inactive)

For reference, reported GI50 for CC(C)(C)c1cc(Cc2ccc(S(C)(=O)=O)cc2)c(O)c(C(C)(C)C)c1 stands at 13.2 µM (inactive)

For reference, reported GI50 for CC1(C)C[C@H](O)[C@H](O)[C@]23C(=O)O[C@H](O)[C@H]2C(C=O)=CC[C@@H]13 stands at > 100 µM (inactive)

For reference, reported GI50 for CCCSc1ccc2[nH]c(N3C(=O)/C(=C/c4ccc(SC)cc4)N=C3c3ccccc3)cc2c1 stands at 29.8 µM (inactive)

For reference, reported GI50 for O=C1CC(C(COCc2ccccc2)OCc2ccccc2)CC(=O)N1 (stereo not given) stands at > 100 µM (inactive)

For reference, reported GI50 for CC(=O)C1=C(C)N(c2ccc(C)cc2)C2(O)C3=C(C(=O)c4ccccc4C3=O)C(O)=CC12Cl (stereo not given) stands at 23.6 µM (inactive)

###

- Tested on: Malme-3M
- assayOverview: NCI tumour cell line growth inhibition, 48 h
Activity calls are given as the source filed them. Rule as the data show it: active = GI50 up to about 1.1 µM and inactive = higher.
Reply using exactly one outcome from active, inactive

O=C(O[C@H]1CCN2C[C@H]3C[C@H](CN4C(=O)CCC[C@H]34)[C@@H]2C1)c1ccc(O)cc1 = inactive

**Q:** Dear colleague, could you share the recorded outcome for CC1(C)CCSC(/C=C/c2ccccc2)=N1 when you have a moment?
**A:** inactive

**Q:** Dear colleague, could you share the recorded outcome for N#Cc1c2c(c(Nc3ccc(F)cc3)n3c1nc1ccccc13)CCCC2 when you have a moment?
**A:** inactive

**Q:** Dear colleague, could you share the recorded outcome for O=C1NCCCC12CCCNC2=O when you have a moment?
**A:** inactive

**Q:** Dear colleague, could you share the recorded outcome for COc1ccc2c(c1)c(=Cc1ccc(N(C)C)cc1)c1cc(-c3ccccc3)[n+](C)n12 when you have a moment?
**A:** active

**Q:** Dear colleague, could you share the recorded outcome for COc1cc2c(cc1OC)c1c(OC)c(OC)cc3c1c1c2sc(=S)n1CC3 when you have a moment?
**A:** inactive

**Q:** Dear colleague, could you share the recorded outcome for c1ccc(N2CCN(CCCN3CCc4c([nH]c5ccccc45)C3c3cccnc3)CC2)cc1 (centres undefined) when you have a moment?
**A:** inactive

**Q:** Dear colleague, could you share the recorded outcome for COC(=O)C1=C(C)NC(=S)NC1c1ccc(N(CCCl)CCCl)cc1Cl (centres undefined) when you have a moment?
**A:** inactive

**Q:** Dear colleague, could you share the recorded outcome for CC(=O)NC1C(OCc2ccccc2)OC(CO)C(O)C1OC(C)C(=O)NC(C(=O)N[C@@H](CCC(=O)NCCNCCNc1c2ccccc2nc2cccc([N+](=O)[O-])c12)C(N)=O)C(C)C (some centres undefined) when you have a moment?
**A:** inactive

**Q:** Dear colleague, could you share the recorded outcome for O=c1c(-c2ccc(O)cc2)coc2cc(OC3OC(CO)C(O)C(O)C3O)cc(O)c12 (centres undefined) when you have a moment?
**A:** inactive

**Q:** Dear colleague, could you share the recorded outcome for CCCN(CCCCC(NC(C)=O)C(=O)NCc1ccccc1)C(=O)N(CCCl)N=O (centres undefined) when you have a moment?
**A:** inactive

###

- Test system: NCI-H522
- assayOverview: NCI tumour cell line growth inhibition, 48 h
Active and inactive are the calls of the source. No stated cut-off is given here; in the data, active = GI50 up to about 1.1 µM and inactive = higher.
Reply using exactly one outcome from active, inactive

Cc1cc(N(CCC#N)CCC#N)ccc1/C=C1N=C(/C=C\c2ccccc2)N(c2ccc(C(=O)O)cc2)C\1=O = inactive
O=C1Nc2ccccc2C(=O)/C1=C/NC(=S)NC1CCCCC1 = inactive
CC(C)(C)OC(=O)NCCC(=O)NC1(c2cc3ccccc3s2)CCCCC1 = inactive
CC(C)(C)[Si](C)(C)O[C@@H](C(=O)OC1C=CCCC1)[C@@H](NC(=O)c1ccccc1)c1ccccc1 (stereo partly specified) = inactive
CCOC(=O)c1nc2ccc(Cl)cc2c2c1Cc1ccccc1-2 = inactive

**Q:** Dear colleague, could you share the recorded outcome for COc1ccc(C#CCC(OC2OC(CO)C(O)C(O)C2O)C(O)c2ccc(OC)c(OC)c2)cc1OC (stereo unspecified) when you have a moment?
**A:** inactive

**Q:** Dear colleague, could you share the recorded outcome for COc1ccc(/C=C/c2cc(OC)c(OC)c(OC)c2)cc1 when you have a moment?
**A:** inactive

**Q:** Dear colleague, could you share the recorded outcome for CC(=O)OCCn1cnc2c(NCC=C(C)C)ncnc21 when you have a moment?
**A:** inactive
